Tested on: Rattus norvegicus
Assay Text: Inhibition of factor 10a in plasma of po dosed Wistar rat after 1 hr
Format: functional
Here the recorded inhibition (INH) is given for each entry.
Measurement Kind: inhibition (INH)

INSERT INTO assay_data (structure_smiles_string, assayed_system, observed_result) VALUES
  ('CN1CCc2nc(C(=O)N[C@@H]3C[C@@H](C(=O)O)CC[C@@H]3NC(=O)c3cc4cc(Cl)ccc4[nH]3)sc2C1', 'Rattus norvegicus', '0%'),
  ('CN1CCc2nc(C(=O)N[C@@H]3CCCC[C@@H]3NC(=O)c3cc4cc(Cl)ccc4[nH]3)sc2C1', 'Rattus norvegicus', '78%'),
  ('CN1CCc2nc(C(=O)N[C@@H]3C[C@@H](C(=O)N(C)C)CC[C@@H]3NC(=O)c3cc4cc(Cl)ccc4[nH]3)sc2C1', 'Rattus norvegicus', '39%'),
  ('CN1CCc2nc(C(=O)N[C@@H]3CC[C@H](C(=O)O)C[C@@H]3NC(=O)c3cc4cc(Cl)ccc4[nH]3)sc2C1', 'Rattus norvegicus', '4%');

---

System: Plasma
Assay Text: Anticoagulant activity in human plasma assessed as concentration required to double prothrombin time
Type: functional
Here the recorded Activity is given for each entry.
Measurement Kind: Activity (µM)

INSERT INTO results (structure_smiles_string, unit_text, sign_qualifier, observed_result) VALUES
  ('CN1CCc2nc(C(=O)N[C@@H]3C[C@H](C(=O)O)CC[C@@H]3NC(=O)c3cc4cc(Cl)ccc4[nH]3)sc2C1', 'µM', '>', 20),
  ('CN1CCc2nc(C(=O)N[C@@H]3C[C@@H](C(=O)N(C)C)CC[C@@H]3NC(=O)c3cc4cc(Cl)ccc4[nH]3)sc2C1', 'µM', '=', 0.9),
  ('CN1CCc2nc(C(=O)N[C@@H]3CC[C@@H](C(=O)N(C)C)C[C@@H]3NC(=O)c3cc4cc(Cl)ccc4[nH]3)sc2C1', 'µM', '>', 20),
  ('CN1CCc2nc(C(=O)N[C@@H]3CC[C@H](C(=O)N(C)C)C[C@@H]3NC(=O)c3cc4cc(Cl)ccc4[nH]3)sc2C1', 'µM', '=', 1.2),
  ('CN1CCc2nc(C(=O)N[C@@H]3CC[C@@H](C(=O)O)C[C@@H]3NC(=O)c3cc4cc(Cl)ccc4[nH]3)sc2C1', 'µM', '>', 20),
  ('CN1CCc2nc(C(=O)N[C@@H]3CC[C@H](C(=O)O)C[C@@H]3NC(=O)c3cc4cc(Cl)ccc4[nH]3)sc2C1', 'µM', '=', 8),
  ('CN1CCc2nc(C(=O)N[C@@H]3C[C@H](C(=O)N(C)C)CC[C@@H]3NC(=O)c3cc4cc(Cl)ccc4[nH]3)sc2C1', 'µM', '=', 6.8);

---

Assay Text: Metabolic stability in human liver microsomes assessed as compound remaining after 5 mins
Type: ADME, Microsome
Test Parameters: read-out: Stability
Here the recorded remaining at 5 min is given for each entry.
Measurement Kind: remaining at 5 min

INSERT INTO measurements (structure_smiles_string, observed_result) VALUES
  ('CN1CCc2nc(C(=O)N[C@@H]3CC[C@H](C(=O)N(C)C)C[C@@H]3NC(=O)c3cc4cc(Cl)ccc4[nH]3)sc2C1', '19%'),
  ('CN1CCc2nc(C(=O)N[C@@H]3CC[C@@H](C(=O)N(C)C)C[C@@H]3NC(=O)c3cc4cc(Cl)ccc4[nH]3)sc2C1', '36%'),
  ('CN1CCc2nc(C(=O)N[C@@H]3CC[C@@H](C(=O)O)C[C@@H]3NC(=O)c3cc4cc(Cl)ccc4[nH]3)sc2C1', '97%'),
  ('CN1CCc2nc(C(=O)N[C@@H]3C[C@H](C(=O)N(C)C)CC[C@@H]3NC(=O)c3cc4cc(Cl)ccc4[nH]3)sc2C1', '43%'),
  ('CN1CCc2nc(C(=O)N[C@@H]3C[C@@H](C(=O)O)CC[C@@H]3NC(=O)c3cc4cc(Cl)ccc4[nH]3)sc2C1', '100%'),
  ('CN1CCc2nc(C(=O)N[C@@H]3C[C@@H](C(=O)N(C)C)CC[C@@H]3NC(=O)c3cc4cc(Cl)ccc4[nH]3)sc2C1', '63%'),
  ('CN1CCc2nc(C(=O)N[C@@H]3CC[C@H](C(=O)O)C[C@@H]3NC(=O)c3cc4cc(Cl)ccc4[nH]3)sc2C1', '98%'),
  ('CN1CCc2nc(C(=O)N[C@@H]3C[C@H](C(=O)O)CC[C@@H]3NC(=O)c3cc4cc(Cl)ccc4[nH]3)sc2C1', '98%');

Recorded values, source ChEMBL document CHEMBL1156611.
